These entries and their values trace back to patent US20120172295A1.

molecular target: GLP-1 receptor (UniProt P43220 24-463, limits assumed); test: cell-based or functional assay
Non-standard residues stand in square brackets, D forms with d. Groups on a side chain read outwards from the residue. No end group written: not given here. *: point of attachment. Palmitoyl = CCCCCCCCCCCCCCCC(=O)*; Myristoyl = CCCCCCCCCCCCCC(=O)*; Aib = CC(C)(N)C(=O)O; Ahx = NCCCCCC(=O)O; βAla = NCCC(=O)O
attribute.measured: EC50 (nM)
# output: bare number, implied unit nM

Incoming: Give me measured EC50, please, for this binder: H[Aib]QGTFTSDK([Ala-Ala-Myristoyl])SKYLD[Aib]RRAQDFVC(PEG 40 kDa)WLMNT-NH2 [Peptide 81* (SEQ ID NO: 573)]
Outgoing: 0.271

Incoming: Answer with the recorded EC50 of H[Aib]QGTFTSDK([βAla-βAla-Palmitoyl])SKYLD[Aib]RRAQDFVQWLMNT-NH2 [Peptide 84 (SEQ ID NO: 566)] only.
Outgoing: 0.004

Incoming: State its EC50: H[Aib]QGTFTSDK([Ala-Ala-Palmitoyl])SKYLD[Aib]RRAQDFVQWLMNT-NH2 [Peptide 82 (SEQ ID NO: 564)]
Outgoing: 0.108

Incoming: Supply recorded EC50 for H[Aib]QGTFTSDK([Ahx-Palmitoyl])SKYLD[Aib]RRAQDFVQWLMNT-NH2 [Peptide 85 (SEQ ID NO: 567)] here.
Outgoing: 0.005

Incoming: Find the measured EC50 of H[Aib]QGTFTSDK(Myristoyl)SKYLD[Aib]RRAQDFVC(PEG 40 kDa)WLMNT-NH2 [Peptide 77* (SEQ ID NO: 570)] and report it.
Outgoing: 1.46
